Source of measurements: patent US9868748B2

biological target: full-length RORγt in Jurkat cells (Homo sapiens (Human)); test: RORγt 5xRORE Assay in Jurkat Cells (Assay 2); format: cell-based; settings: Nanoluc luciferase reporter, 16-18 hrs, Table 9, read-out: RORγt5X IC50 Range*
Sequence (P51449 other isoform, or with tags, fused parts or gaps): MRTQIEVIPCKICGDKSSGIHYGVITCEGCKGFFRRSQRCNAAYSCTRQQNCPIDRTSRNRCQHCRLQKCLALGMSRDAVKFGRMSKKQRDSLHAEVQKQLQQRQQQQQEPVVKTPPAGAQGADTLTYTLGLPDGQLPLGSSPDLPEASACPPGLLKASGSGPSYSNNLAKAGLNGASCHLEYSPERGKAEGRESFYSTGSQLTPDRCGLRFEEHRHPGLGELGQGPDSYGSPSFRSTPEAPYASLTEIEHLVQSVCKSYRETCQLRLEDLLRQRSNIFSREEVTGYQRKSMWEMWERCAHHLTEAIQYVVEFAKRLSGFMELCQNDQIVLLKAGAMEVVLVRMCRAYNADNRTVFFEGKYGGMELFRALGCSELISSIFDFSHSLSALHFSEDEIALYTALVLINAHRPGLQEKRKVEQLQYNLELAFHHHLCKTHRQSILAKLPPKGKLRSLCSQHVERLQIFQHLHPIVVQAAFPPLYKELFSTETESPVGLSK
pIC50: −log10 of the molar value.
Would you kindly list pIC50 for each of these compounds?

query: Give its pIC50 value. Item: CCS(=O)(=O)c1ccc(CC(=O)Nc2nc3c(s2)CN(C[C@@H]2CCCOC2)[C@H]3C(C)C)cc1 (single isomer, unassigned)
result: < 6.00

query: Give its pIC50 value. Item: `CCS(=O)(=O)c1ccc(CC(=O)Nc2nc3c(s2)CN(Cc2ccc(=O)n(C)c2)[C@H]3C(C)C)cc1`
result: 6.00 to 7.00

query: Give its pIC50 value. Item: `CC(C)[C@H]1c2nc(C(=O)NCc3ccc(S(C)(=O)=O)cc3)sc2CN1Cc1ccc(C(F)(F)F)cc1`
result: > 7.00

query: Give its pIC50 value. Item: CCS(=O)(=O)c1ccc(CC(=O)Nc2nc3c(s2)CN(Cc2ccc(C#N)cn2)[C@@]3(C)C(C)C)cc1 [drawing 270]
result: > 7.00

query: Give its pIC50 value. Item: `CC(C)[C@H]1c2nc(C(=O)NCc3ccc(S(C)(=O)=O)cc3)sc2CN1Cc1ccc(C#N)cc1F`
result: 6.00 to 7.00

query: Give its pIC50 value. Item: `COc1ccc(CC(=O)Nc2nc3c(s2)CN(Cc2ccc(Cl)cc2)[C@H]3C(C)C)cc1`
result: < 6.00

query: Give its pIC50 value. Item: CCS(=O)(=O)c1ccc(CC(=O)Nc2nc3c(s2)C(C)N(Cc2ccc(Cl)cc2)[C@H]3C(C)C)cc1 (stereo partly drawn)
result: > 7.00

query: Give its pIC50 value. Item: CCS(=O)(=O)c1ccc(CC(=O)Nc2nc3c(s2)CN(C[C@@H]2CC[C@H](C(F)(F)F)N(C4CC4)C2)[C@H]3C(C)C)cc1 (single isomer, unassigned)
result: < 6.00

query: Give its pIC50 value. Item: `Cc1cc(CN2Cc3sc(NC(=O)Cc4ccc(C#N)cc4)nc3[C@@H]2C(C)C)ccc1C#N`
result: 6.00 to 7.00

query: Give its pIC50 value. Item: `CCS(=O)(=O)c1ccc(CC(=O)Nc2nc3c(s2)CN(CC2CN(CC(F)(F)F)C2)[C@H]3C(C)C)cc1`
result: 6.00 to 7.00

query: Give its pIC50 value. Item: `CCS(=O)(=O)c1ccc(CC(=O)Nc2nc3c(s2)CN(C[C@H]2CC[C@H](C(N)=O)CC2)[C@H]3C(C)C)cc1`
result: 6.00 to 7.00

query: Give its pIC50 value. Item: `CC(C)[C@H]1c2nc(NC(=O)Cc3ccccc3)sc2CN1Cc1ccc(Cl)cc1`
result: < 6.00

query: Give its pIC50 value. Item: CCS(=O)(=O)c1ccc(CNC(=O)c2nc3c(s2)CN(CC2CN(C(=O)OC(C)(C)C)CCO2)[C@H]3C(C)C)cc1 (stereo partly drawn)
result: > 7.00

query: Give its pIC50 value. Item: `CC(C)c1ccc(CN2Cc3sc(NC(=O)Cc4ccc(S(C)(=O)=O)cc4)nc3[C@H]2C(C)C)cc1`
result: < 6.00

query: Give its pIC50 value. Item: `CC(C)[C@H]1c2nc(NC(=O)Cc3ccc(C(=O)O)cc3)sc2CN1Cc1ccc(Cl)cc1`
result: 6.00 to 7.00

query: Give its pIC50 value. Item: CC(C)[C@H]1c2nc(NC(=O)Cc3ccc(S(C)(=O)=O)cc3)sc2CN1[C@@H](C)c1ccc(C(F)(F)F)nc1 (single isomer, unassigned)
result: > 7.00

query: Give its pIC50 value. Item: `CCS(=O)(=O)c1ccc(CC(=O)Nc2nc3c(s2)CN(Cc2ccc(C(F)(F)F)c(Cl)c2)[C@@H]3C(C)C)cc1`
result: 6.00 to 7.00

query: Give its pIC50 value. Item: `CCS(=O)(=O)c1ccc(CC(=O)Nc2nc3c(s2)CN(Cc2cc(OC(F)(F)F)ccc2F)[C@@H]3C(C)C)cc1`
result: < 6.00

query: Give its pIC50 value. Item: CCS(=O)(=O)c1ccc(CC(=O)Nc2nc3c(s2)CN(C[C@@H]2CC[C@H](C(F)(F)F)NC2)[C@H]3C(C)C)cc1 (single isomer, unassigned)
result: < 6.00

query: Give its pIC50 value. Item: `CCS(=O)(=O)c1ccc(CC(=O)Nc2nc3c(s2)CN(Cc2ccc(C#N)cc2)[C@@H]3C(C)C)cc1`
result: 6.00 to 7.00

query: Give its pIC50 value. Item: `CCc1ccc(CN2Cc3sc(NC(=O)Cc4ccc(S(C)(=O)=O)cc4)nc3[C@H]2C(C)C)cc1`
result: < 6.00

query: Give its pIC50 value. Item: `CCS(=O)(=O)c1ccc(CNC(=O)c2nc3c(s2)CN(Cc2cnc(C(F)(F)F)nc2)[C@H]3C(C)C)cc1`
result: 6.00 to 7.00

query: Give its pIC50 value. Item: CCS(=O)(=O)c1ccc(CC(=O)Nc2nc3c(s2)CN(C[C@H]2CC[C@H](C(F)(F)F)CC2)[C@H]3C(C)C)nc1 (single isomer, unassigned)
result: > 7.00

query: Give its pIC50 value. Item: `CCS(=O)(=O)c1ccc(CC(=O)Nc2nc3c(s2)CN(Cc2ccc(C(F)(F)F)cc2)[C@@H]3C(C)C)cc1`
result: 6.00 to 7.00

query: Give its pIC50 value. Item: `CC[C@H]1c2nc(NC(=O)Cc3ccc(S(C)(=O)=O)cc3)sc2CN1Cc1ccc2nn[nH]c2c1`
result: 6.00 to 7.00

query: Give its pIC50 value. Item: CCS(=O)(=O)c1ccc(CC(=O)Nc2nc3c(s2)CN(C[C@H]2CCCOC2)[C@H]3C(C)C)cc1 (single isomer, unassigned)
result: < 6.00

query: Give its pIC50 value. Item: `CCS(=O)(=O)c1ccc(CC(=O)Nc2nc3c(s2)CN(Cc2ccc(Cl)cc2)[C@H]3C(C)C)c(Cl)c1`
result: > 7.00

query: Give its pIC50 value. Item: `CCS(=O)(=O)c1ccc(CC(=O)Nc2nc3c(s2)CN(Cc2ccccc2)[C@@H]3C(C)C)cc1`
result: < 6.00

query: Give its pIC50 value. Item: `CCS(=O)(=O)c1ccc(CC(=O)Nc2nc3c(s2)CN(c2nccc(C(F)(F)F)n2)[C@H]3C(C)C)cc1`
result: < 6.00

query: Give its pIC50 value. Item: `CC[C@@]1(C)c2nc(NC(=O)Cc3ccc(S(=O)(=O)CC)cc3)sc2CN1Cc1ccc(Cl)cc1`
result: > 7.00

====

Target: recombinant RORγ Ligand Binding Domain (LBD) protein (Homo sapiens (Human), UniProt P51449)
Assay: Radio-Ligand RORγ Binding Assay (Assay 1)
Conditions: competition with 25-hydroxy [26,27-3H]-cholesterol, SPA; Table 8; read-out: RORγ Binding Ki Range*
Description: Radio-Ligand RORγ Binding Assay (Assay 1) Compounds of the present invention were tested for ability to bind to RORγ in a cell-free competition assay with commercially available radio-ligand (RL), 25-hydroxy [26,27-^3H]— cholesterol (PerkinElmer, Cat. # NET674250UC), for a ligand binding site on a recombinant RORγ Ligand Binding Domain (LBD) protein expressed as a 6×His-Glutathione-S-Transferase (GST) fusion (“6×His” disclosed as SEQ ID NO: 2). […]
Property measured: Ki

query: Give its Ki value. Item: `CCS(=O)(=O)c1ccc(CC(=O)Nc2nc3c(s2)CN(C[C@H]2CC[C@H](OC(F)F)CC2)[C@H]3C(C)C)cc1`
result: < 100 nM

query: Give its Ki value. Item: `CC(C)[C@H]1c2nc(NC(=O)Cc3ccc(S(C)(=O)=O)cc3)sc2CN1Cc1ccc(Cl)cc1`
result: < 100 nM

query: Give its Ki value. Item: `CCS(=O)(=O)c1ccc(CC(=O)Nc2nc3c(s2)CN([C@H](C)c2ccc(Br)cc2F)[C@H]3C(C)C)cc1`
result: < 100 nM

query: Give its Ki value. Item: `CCS(=O)(=O)c1ccc(CC(=O)Nc2nc3c(s2)CN(Cc2ccc(C#N)cn2)[C@@]3(C)C(C)C)cc1`
result: < 100 nM

query: Give its Ki value. Item: `CCS(=O)(=O)c1ccc(CC(=O)Nc2nc3c(s2)CN(Cc2ccc(C(F)(F)F)nc2C)[C@H]3C(C)C)cc1`
result: < 100 nM

query: Give its Ki value. Item: `CCS(=O)(=O)c1ccc(CC(=O)Nc2nc3c(s2)CN(C[C@H]2CC[C@H](c4nnc(C)o4)CC2)[C@H]3C(C)C)cc1`
result: < 100 nM

query: Give its Ki value. Item: `CCS(=O)(=O)c1ccc(CC(=O)Nc2nc3c(s2)CN(Cc2ccc(C(F)(F)F)cc2)[C@H]3C(C)C)cc1`
result: < 100 nM

query: Give its Ki value. Item: `CCS(=O)(=O)c1ccc(CNC(=O)c2nc3c(s2)CN(Cc2ccc(Cl)cc2)[C@H]3C(C)C)nc1`
result: < 100 nM

query: Give its Ki value. Item: `CCS(=O)(=O)c1ccc(CC(=O)Nc2nc3c(s2)CN(C[C@H]2CC[C@H](C(=O)OC)CC2)[C@H]3C(C)C)cc1`
result: < 100 nM

query: Give its Ki value. Item: `CCS(=O)(=O)c1ccc(CC(=O)Nc2nc3c(s2)CN(Cc2ccc(-c4nnn(C)n4)cc2)[C@H]3C(C)C)cc1`
result: < 100 nM

query: Give its Ki value. Item: `CC(C)[C@H]1c2nc(NC(=O)Cc3ccc(S(C)(=O)=O)cc3)sc2CN1Cc1ccc(C(F)(F)F)cc1`
result: < 100 nM

query: Give its Ki value. Item: `CC(C)[C@H]1c2nc(C(=O)NCc3ccc(S(C)(=O)=O)cc3)sc2CN1Cc1ccc(OC(F)F)cc1`
result: < 100 nM

query: Give its Ki value. Item: `CC(C)[C@H]1c2nc(NC(=O)Cc3ccc(S(C)(=O)=O)cc3)sc2CN1Cc1ccc(C#N)cc1`
result: < 100 nM

query: Give its Ki value. Item: `CCS(=O)(=O)c1ccc(CC(=O)Nc2nc3c(s2)CN(C[C@H]2CC[C@H](C(F)(F)F)OC2)[C@H]3C(C)C)cc1`
result: < 100 nM

query: Give its Ki value. Item: `CCS(=O)(=O)c1ccc(CC(=O)Nc2nc3c(s2)CN(Cc2ccc(C#N)cc2)[C@H]3C(C)C)nc1`
result: < 100 nM

query: Give its Ki value. Item: `CCS(=O)(=O)c1ccc(CNC(=O)c2nc3c(s2)CN(C[C@@H]2CN(C(=O)OC(C)(C)C)CCO2)[C@H]3C(C)C)cc1`
result: < 100 nM

query: Give its Ki value. Item: `CCS(=O)(=O)c1ccc(CC(=O)Nc2nc3c(s2)CN([C@H](C)c2ccc(Cl)cc2F)[C@H]3C(C)C)cc1`
result: < 100 nM

query: Give its Ki value. Item: `CCS(=O)(=O)c1ccc(CNC(=O)c2nc3c(s2)CN(Cc2ccc(C(F)(F)F)cn2)[C@H]3C(C)C)cc1`
result: < 100 nM

query: Give its Ki value. Item: `CCc1ccc(CN2Cc3sc(NC(=O)Cc4ccc(S(=O)(=O)CC)cc4)nc3[C@@H]2C(C)C)cc1`
result: < 100 nM
